Data origin, for the record: patent US20250129086A1

Test system: PC-9 (EGFR exon 19 deletion)
MEASUREMENT_DESCRIPTION: Cell antiproliferative assay (CTG, 72 h), PC-9
Assay type: cell-based, human
ASSAY_CONTEXT: Homo sapiens, PC-9, 72 h, Table 2, PC-9 cells
Procedure: Test Example 1 Cell Antiproliferative Assay H1975: with EGFR: L858R/T790M double mutation; PC-9 with EGFR exon 19 deletion, HCC827 with exon 19 deletion mutation. CellCounting-Lite2.0, Trypsin EDTA, 37° C. […] • (A)96-well plates were incubated in an incubator for 72 h. The effect of the compounds was observed under an inverted microscope. • (B)25 μl of CTG solution was added to each well, the plate was put on shaker for 10 minutes and the […] of each well was read. […]
MEASURED_METRIC: IC50

Some entries whose results are on file:
O=C1CCC(Nc2ccc(C3CCN(CC(=O)N4CCN(c5ccc(-c6cc(F)c7c(c6)C(=O)N(C(C(=O)Nc6nccs6)c6ncn8c6CCC8)C7)cc5)CC4)CC3)cc2)C(=O)N1 (centres unmarked) [Comparative Compound 1, reference compound] : ≥ 1000 nM
COc1cc(N2CCN(C(=O)CN3CCC(c4ccc(NC5CCC(=O)NC5=O)cc4)CC3)CC2)c(C)cc1Nc1ncc(Cl)c(Nc2ccccc2C(C)=O)n1 (centres unmarked) : 100 to 1000 nM
COc1cc(N2CCN(C(=O)CN3CCC(c4ccc(NC5CCC(=O)NC5=O)cc4)CC3)CC2)ccc1Nc1ncc(Cl)c(Nc2cc(F)ccc2F)n1 (centres unmarked) : ≥ 1000 nM
COc1cc(OC2CCN(C(=O)CN3CCC(c4ccc(NC5CCC(=O)NC5=O)cc4)CC3)CC2)ccc1Nc1ncc(Cl)c(Nc2ccccc2C(C)=O)n1 (centres unmarked) : ≥ 1000 nM
CNC(=O)c1ccccc1Nc1nc(Nc2cc(C)c(N3CCN(C(=O)CN4CCC(c5ccc(NC6CCC(=O)NC6=O)cc5)CC4)C(C)C3)cc2OC)ncc1C(F)(F)F (centres unmarked) : 10 to 100 nM

Form field, IC50 with PC-9 (EGFR exon 19 deletion), item COc1cc(C2CCN(C(=O)CN3CCC(c4ccc(NC5CCC(=O)NC5=O)cc4)CC3)CC2)ccc1Nc1ncc(Cl)c(Nc2ccccc2P(C)(C)=O)n1 (centres unmarked) : 100 to 1000 nM

Form field, IC50 with PC-9 (EGFR exon 19 deletion), item CNC(=O)c1ccccc1Nc1nc(Nc2cc(C(F)(F)F)c(N3CCN(C(=O)CN4CCC(c5ccc(NC6CCC(=O)NC6=O)cc5)CC4)CC3)cc2OC)ncc1Br (centres unmarked) : 10 to 100 nM

Form field, IC50 with PC-9 (EGFR exon 19 deletion), item COc1cc(N2CCN(C(=O)CN3CCC(c4ccc(NC5CCC(=O)NC5=O)cc4)C3)CC2)ccc1Nc1ncc(Cl)c(Nc2ccccc2C(C)=O)n1 (centres unmarked) : 100 to 1000 nM

Form field, IC50 with PC-9 (EGFR exon 19 deletion), item COc1cc(N2C[C@H]3CN(C(=O)CN4CCN(c5ccc(NC6CCC(=O)NC6=O)cc5)CC4)C[C@H]3C2)ccc1Nc1ncc(Cl)c(Nc2ccccc2C(C)=O)n1 (some centres unmarked) : 100 to 1000 nM

Form field, IC50 with PC-9 (EGFR exon 19 deletion), item COc1cc(N2CCN(C(=O)CN3CCC(c4ccc(NC5CCC(=O)NC5=O)cc4)CC3)CC2)ccc1Nc1ncc(C(F)(F)F)c(Nc2ccccc2C(=O)NC2CCCC2)n1 (centres unmarked) : 10 to 100 nM

Form field, IC50 with PC-9 (EGFR exon 19 deletion), item CNC(=O)c1ccccc1Nc1nc(Nc2cc(C#N)c(N3CCN(C(=O)CN4CCC(c5ccc(NC6CCC(=O)NC6=O)cc5)CC4)CC3)cc2OC)ncc1Cl (centres unmarked) : 10 to 100 nM

* * *

System: HCC827 (exon 19 deletion mutation)
MEASUREMENT_DESCRIPTION: Cell antiproliferative assay (CTG, 72 h), HCC827
Assay type: cell-based, human
ASSAY_CONTEXT: Homo sapiens, HCC827, 72 h, Table 2, HCC827 cells
MEASURED_METRIC: IC50

Form field, IC50 with HCC827 (exon 19 deletion mutation), item CNC(=O)c1ccccc1Nc1nc(Nc2cc(C)c(N3CCN(C(=O)CN4CCC(c5ccc(NC6CCC(=O)NC6=O)cc5)CC4)CC3)cc2OC)ncc1Br (centres unmarked) : 10 to 100 nM

Form field, IC50 with HCC827 (exon 19 deletion mutation), item COc1cc(N2CCN(C(=O)CN3CCC(c4ccc(NC5CCC(=O)NC5=O)cc4)CC3)CC2)ccc1Nc1ncc(Cl)c(Nc2ccc(Cl)cc2C(C)(C)O)n1 (centres unmarked) : 10 to 100 nM

Form field, IC50 with HCC827 (exon 19 deletion mutation), item COc1cc(N2CCC[C@H](NC(=O)CN3CCC(c4ccc(NC5CCC(=O)NC5=O)cc4)CC3)C2)ccc1Nc1ncc(Cl)c(Nc2ccccc2C(C)=O)n1 (some centres unmarked) : ≥ 1000 nM

Form field, IC50 with HCC827 (exon 19 deletion mutation), item COc1cc(N2CCN(C(=O)CN3CCC(c4ccc(NC5CCC(=O)NC5=O)cc4)CC3)CC2)c(C(F)(F)F)cc1Nc1ncc(Br)c(Nc2ccccc2C(C)=O)n1 (centres unmarked) : 10 to 100 nM

Form field, IC50 with HCC827 (exon 19 deletion mutation), item COc1cc(N2CCN(C(=O)CN3CCC(c4ccc(NC5CCC(=O)NC5=O)cc4)CC3)CC2)ccc1Nc1ncc(Cl)c(Nc2ccccc2C(=O)NC(C)C)n1 (centres unmarked) : 100 to 1000 nM

Form field, IC50 with HCC827 (exon 19 deletion mutation), item O=C1CCC(Nc2ccc(C3CCN(CC(=O)N4CCN(c5ccc(-c6cc(F)c7c(c6)C(=O)N(C(C(=O)Nc6nccs6)c6ccccc6F)C7)cc5)CC4)CC3)cc2)C(=O)N1 (centres unmarked) : 100 to 1000 nM

Form field, IC50 with HCC827 (exon 19 deletion mutation), item COc1cc(N2CCN(C(=O)CN3CCC(c4ccc(NC5CCC(=O)NC5=O)cc4)CC3)CC2)ccc1Nc1ncc(Cl)c(Nc2ccccc2NS(C)(=O)=O)n1 (centres unmarked) : 10 to 100 nM

Form field, IC50 with HCC827 (exon 19 deletion mutation), item O=C1CCC(Nc2ccc(C3CCN(CC(=O)N4CCN(c5ccc(Nc6ncc(Cl)c(Nc7ccccc7)n6)c(Cl)c5)CC4)CC3)cc2)C(=O)N1 (centres unmarked) : 100 to 1000 nM

* * *

Each entry below carries its reported IC50.
Tested on: PC-9 (EGFR exon 19 deletion)
MEASUREMENT_DESCRIPTION: Cell antiproliferative assay (CTG, 72 h), PC-9
Assay type: cell-based, human
ASSAY_CONTEXT: Homo sapiens, PC-9, 72 h, Table 2, PC-9 cells

Some entries whose results are on file:
C=CC(=O)Nc1cc(Nc2ncc(C(F)(F)F)c(Nc3ccccc3)n2)c(OC)cc1N(C)CCN(C)C(=O)CN1CCC(c2ccc(NC3CCC(=O)NC3=O)cc2)CC1 (stereo not shown) [Compound T-180] : ≥ 1000 nM
COc1cc(N2CCN(C(=O)CN3CCC(c4ccc(NC5CCC(=O)NC5=O)cc4)CC3)CC2)c(-c2cnn(C)c2)cc1Nc1ncc(Cl)c(Nc2ccccc2C(C)=O)n1 (stereo not shown) [Compound T-233] : 100 to 1000 nM
COc1cc(N2CC3CN(C(=O)CN4CCC(c5ccc(NC6CCC(=O)NC6=O)cc5)CC4)CC3C2)ccc1Nc1ncc(Cl)c(Nc2ccccc2C(C)=O)n1 (stereo not shown) [Compound T-188] : 100 to 1000 nM
COc1cc(N2CCN(C(=O)CN3CCN(c4ccc5c(c4)CN(C4CCC(=O)NC4=O)C5=O)CC3)CC2)ccc1Nc1ncc(Cl)c(Nc2ccccc2C(C)=O)n1 (stereo not shown) [Compound T-109] : ≥ 1000 nM
COc1cc(N2CCN(C(=O)CN3CCC(c4ccc(NC5CCC(=O)NC5=O)cc4)CC3)CC2)ccc1Nc1ncc(C(F)(F)F)c(Nc2ccccc2P(C)(C)=O)n1 (stereo not shown) [Compound T-46] : ≥ 1000 nM
CNC(=O)c1ccccc1Nc1nc(Nc2cc(C)c(N3CCN(C(=O)CN4CCC(c5ccc(NC6CCC(=O)NC6=O)cc5)CC4)CC3C)cc2OC)ncc1Br (stereo not shown) [Compound T-359] : 10 to 100 nM
COc1cc(N2CCN(CC3CCN(c4ccc5c(c4)C(=O)N(C4CCC(=O)NC4=O)C5=O)CC3)CC2)ccc1Nc1ncc(Cl)c(Nc2ccccc2C(C)=O)n1 (stereo not shown) [Compound T-226] : ≥ 1000 nM
CC(=O)c1ccccc1Nc1nc(Nc2ccc(N3CCN(C(=O)CN4CCC(c5ccc(NC6CCC(=O)NC6=O)cc5)CC4)CC3)cc2Cl)ncc1Cl (stereo not shown) [Compound T-333] : 100 to 1000 nM

compound COc1cc(N2CCC(CN3CCN(c4ccc5c(c4)C(=O)N(C4CCC(=O)NC4=O)C5=O)CC3)CC2)ccc1Nc1ncc(Cl)c(Nc2ccccc2C(C)=O)n1 (stereo not shown) [Compound T-225] , IC50 observed: ≥ 1000 nM

compound COc1cc(N2CCC(NC(=O)CN3CCC(c4ccc(NC5CCC(=O)NC5=O)cc4)CC3)CC2)ccc1Nc1ncc(Cl)c(Nc2ccccc2C(C)=O)n1 (stereo not shown) [Compound T-336] , IC50 observed: 100 to 1000 nM

compound COc1cc(N2CC(NC(=O)CN3CCC(c4ccc(NC5CCC(=O)NC5=O)cc4)CC3)C2)ccc1Nc1ncc(Cl)c(Nc2ccccc2C(C)=O)n1 (stereo not shown) [Compound T-169] , IC50 observed: 100 to 1000 nM

compound COc1cc(N2CCN(C(=O)CN3CCC(c4ccc(NC5CCC(=O)NC5=O)cc4)CC3)CC2)ncc1Nc1ncc(Cl)c(Nc2ccccc2C(C)=O)n1 (stereo not shown) [Compound T-244] , IC50 observed: 10 to 100 nM

compound CNC(=O)c1ccccc1Nc1nc(Nc2cc(C)c(N3CCN(C(=O)CN4CCC(c5ccc(NC6CCC(=O)NC6=O)cc5F)CC4)CC3)cc2OC)ncc1Cl (stereo not shown) [Compound T-367] , IC50 observed: 10 to 100 nM
